Tested on: WNK3
Settings: concentration: 1 μM, replicates: in singlicate; n = 1;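 also: KINOMEscan kinase panel screen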
REPORTED_ENDPOINT: %Inh (%)
Response body: numeric value in %, unit text excluded.

Q: Give its %Inh value. Item: CC(=O)Nc1n[nH]c2ncc(-c3ccccc3)cc12
Ans: 0

Q: Give its %Inh value. Item: Cl.c1ccc(Cn2ncc3cc(Nc4ncnc5ccccc45)ccc32)cc1
Ans: 0

Q: Give its %Inh value. Item: CS(=O)(=O)CCNCc1nc(-c2ccc3ncnc(Nc4ccc(OCc5cccc(F)c5)c(Cl)c4)c3c2)cs1.Cl
Ans: 18

Q: Give its %Inh value. Item: N#Cc1ccc(Oc2ccc(Nc3ncnc4cc[nH]c34)cc2Cl)cc1
Ans: 0

Q: Give its %Inh value. Item: O=C(Nc1n[nH]c2nc(-c3ccco3)c(Br)cc12)c1ccc(CN2CCCC2)cc1.O=C(O)[C@H](O)[C@@H](O)C(=O)O
Ans: 0

Q: Give its %Inh value. Item: O=C(NCCCN1CCCC1=O)c1cnc(NCc2cc(Cl)ccc2Cl)nc1NC1CCNCC1
Ans: 0

Q: Give its %Inh value. Item: Cn1ccc2ncnc(Nc3ccc(Oc4cccc(Cl)c4)c(Cl)c3)c21
Ans: 0

Q: Give its %Inh value. Item: Cl.Cn1ccc(-c2cccc(Nc3ccnc4cc(-c5nccs5)ccc34)c2)n1
Ans: 50

---

Tested on: CLK1
Conditions: concentration: 1 μM, replicates: in singlicate; n = 1
Kindly state %Inh for each of the entries shown.
Response body: numeric value in %, unit text excluded.

Q: Give its %Inh value. Item: Cc1ccc(NC(=O)c2cccc(C#N)c2)cc1-c1ccc(C(=O)Nc2ccncc2)cc1 [GSK1398463]
Ans: 29

Q: Give its %Inh value. Item: Nc1n[nH]c2nnc(-c3ccccc3)cc12 [SB-517389]
Ans: 43

Q: Give its %Inh value. Item: CS(=O)(=O)CCNCc1nc(-c2ccc3ncnc(Nc4ccc(OCc5cccc(F)c5)c(Cl)c4)c3c2)cs1.Cl [GW583340]
Ans: 33

---

Kindly state %Inh for each of the entries shown.
System: MARK2
Conditions: concentration: 1 μM, replicates: in singlicate; n = 1
Response body: numeric value in %, unit text excluded.

Q: Give its %Inh value. Item: O=C(CCO)NCCn1ccc2ncnc(Nc3ccc(Oc4cccc(C(F)(F)F)c4)c(Cl)c3)c21
Ans: 4

Q: Give its %Inh value. Item: CSc1ccc(NC2=C(c3ccccc3Cl)C(=O)NC2=O)cc1
Ans: 0

Q: Give its %Inh value. Item: Nc1nccc2scc(-c3ccc4c(c3)CCN4C(=O)Cc3cc(F)ccc3F)c12
Ans: 0

Q: Give its %Inh value. Item: NC(=O)c1sc(-n2cnc3ccccc32)cc1OCc1ccccc1F
Ans: 0

Q: Give its %Inh value. Item: Clc1ccc(-c2cc(-c3c[nH]nc3-c3ccccn3)ccn2)cc1
Ans: 0

Q: Give its %Inh value. Item: Fc1cccc(COc2ccc(Nc3ncnc4nn5ccccc5c34)cc2Cl)c1
Ans: 0

Q: Give its %Inh value. Item: FC(F)(F)c1ccc(-c2nn3ncccc3c2-c2ccnc(Nc3cccc(C(F)(F)F)c3)n2)cc1
Ans: 0

Q: Give its %Inh value. Item: Nc1nc(-c2ccc3c(N)n[nH]c3c2)cc(N2CCCCC2)n1
Ans: 0

Q: Give its %Inh value. Item: Cl.Cl.c1ccc(-c2cc3ccncc3cc2OC2CCNCC2)cc1
Ans: 0

Q: Give its %Inh value. Item: FC(F)(F)c1cc(Nc2nccc(-c3c(-c4ccc(Cl)cc4)nn4ncccc34)n2)ccc1Cl
Ans: 0

Q: Give its %Inh value. Item: CN1c2ccc(-c3ccc(C(=O)NCCO)cc3)cc2-c2[nH]ncc2S1(=O)=O
Ans: 24

Q: Give its %Inh value. Item: Clc1cc(Nc2ncnc3cc[nH]c23)ccc1OCc1ccccn1
Ans: 0

---

Kindly state %Inh for each of the entries shown.
Tested on: BRSK2
Conditions: concentration: 1 μM, replicates: in singlicate; n = 1
Response body: numeric value in %, unit text excluded.

Q: Give its %Inh value. Item: N#Cc1ccc(Oc2ccc(Nc3ncnc4cc[nH]c34)cc2Cl)cc1
Ans: 0

Q: Give its %Inh value. Item: COc1cc2ncnc(Nc3ccc(OCc4ccccc4Br)c(Cl)c3)c2cc1OC.Cl [GI261590]
Ans: 37

Q: Give its %Inh value. Item: CNc1nccc(-c2c(-c3ccc(F)cc3)ncn2CCCN2CCOCC2)n1 [SB-222516]
Ans: 3

Q: Give its %Inh value. Item: COC(=O)c1cccc(NC(=O)NCCNc2ccnc(Nc3ccc(F)cc3)n2)c1 [GSK1379883]
Ans: 0

Q: Give its %Inh value. Item: CN1CCC(n2cnc(-c3ccc(F)cc3)c2-c2ccnc(NC3CCNCC3)n2)CC1 [SB-229482]
Ans: 0

Q: Give its %Inh value. Item: CN1c2ccc(-c3ccc(C(=O)NCCO)cc3)cc2-c2[nH]ncc2S1(=O)=O
Ans: 15

Q: Give its %Inh value. Item: Cn1cc(-c2ccc3c(c2)CCN3C(=O)Cc2cccc(C(F)(F)F)c2)c2c(N)ncnc21 [GSK2606414]
Ans: 0

Q: Give its %Inh value. Item: COc1ccc(Nc2nccc(N3CCC(NC(=O)Nc4ccc5c(c4)OCO5)C3)n2)cc1 (stereo not drawn) [GSK1379745]
Ans: 2

Q: Give its %Inh value. Item: Cc1ccc(C)c(NC(=O)NCCNc2ccnc(Nc3ccc(F)cc3)n2)c1 [GSK1379878]
Ans: 0

---

Tested on: GCN2(Kin.Dom.2,S808G)
Construct: gene EIF2AK4
Details: concentration: 1 μM, replicates: in singlicate; n = 1
REPORTED_ENDPOINT: %Inh (%)
Response body: numeric value in %, unit text excluded.

Q: Give its %Inh value. Item: CCn1c(-c2ccncc2)nc2cnccc21 [SB-735216]
Ans: 12

Q: Give its %Inh value. Item: CC(C)N1CCC(n2cnc(-c3ccc(F)cc3)c2-c2ccnc(N)n2)CC1 [SB-223132]
Ans: 0

Q: Give its %Inh value. Item: Cc1ccc(C)c(NC(=O)NCCNc2ccnc(Nc3ccc(F)cc3)n2)c1 [GSK1379878]
Ans: 0

Q: Give its %Inh value. Item: Cl.c1ccc(Cn2ncc3cc(Nc4ncnc5ccccc45)ccc32)cc1 [GW273749]
Ans: 0

Q: Give its %Inh value. Item: c1ccc(-c2ccc3c(-c4ccnc(Nc5ccc6c(c5)OCCO6)n4)cnn3n2)cc1 [GW818941]
Ans: 11

Q: Give its %Inh value. Item: Nc1nc(-c2ccccn2)c(-c2ccnc3ccccc23)s1 [GW548057]
Ans: 0

Q: Give its %Inh value. Item: Fc1ccc(Nc2nccc(-c3c(-c4ccc(Cl)cc4)nn4ncccc34)n2)cc1F [GW829058]
Ans: 3

Q: Give its %Inh value. Item: Oc1ccc2ncnc(Nc3ccc(OCc4ccccc4)cc3)c2c1 [GI262866]
Ans: 15

Q: Give its %Inh value. Item: Fc1ccc(-c2ncn(CCCNCc3ccccc3)c2-c2ccncc2)cc1
Ans: 0

---

System: CDK2
Settings: concentration: 1 μM, replicates: in singlicate; n = 1
Kindly state %Inh for each of the entries shown.
Response body: numeric value in %, unit text excluded.

Q: Record lookup: for CDK2, what %Inh belongs to Cn1ccc2ncnc(Nc3ccc(Oc4cccc(Cl)c4)c(Cl)c3)c21 ?
Ans: 0

Q: Record lookup: for CDK2, what %Inh belongs to Nc1nc(-c2ccc3c(N)n[nH]c3c2)cc(N2CCC[C@@H](C(=O)Nc3ccccc3)C2)n1.O=C(O)C(F)(F)F.O=C(O)C(F)(F)F [GSK2288359] ?
Ans: 0

Q: Record lookup: for CDK2, what %Inh belongs to COc1ccc(NC(=O)Nc2ccc(C)c(-c3ccc(C(=O)Nc4ccncc4)cc3)c2)cc1 [GSK1398475] ?
Ans: 0

Q: Record lookup: for CDK2, what %Inh belongs to O=C(Nc1ccccc1)Nc1ccc(Oc2ccc3nccn3n2)cc1 ?
Ans: 0

Q: Record lookup: for CDK2, what %Inh belongs to Fc1ccc(-c2ncn(CCCNCc3ccccc3)c2-c2ccncc2)cc1 ?
Ans: 0

Q: Record lookup: for CDK2, what %Inh belongs to FC(F)(F)c1ccc(-c2nn3ncccc3c2-c2ccnc(Nc3cccc(C(F)(F)F)c3)n2)cc1 [GW828205] ?
Ans: 1

Q: Record lookup: for CDK2, what %Inh belongs to COc1ccc(-c2nc3n(c2-c2ccncc2)CCC3)cc1 [SKF-104493] ?
Ans: 0

Q: Record lookup: for CDK2, what %Inh belongs to Clc1cc(Nc2ncnc3cc[nH]c23)ccc1OCc1ccccn1 ?
Ans: 8

Q: Record lookup: for CDK2, what %Inh belongs to Cn1ccc2ncnc(Oc3ccc(NC(=O)Nc4cccnc4)c(Cl)c3)c21 ?
Ans: 0

Q: Record lookup: for CDK2, what %Inh belongs to Nc1nc(-c2ccccn2)c(-c2ccnc3ccccc23)s1 [GW548057] ?
Ans: 0

Q: Record lookup: for CDK2, what %Inh belongs to Cc1ccc(O)cc1Nc1cc(C(F)(F)F)nc2ccc(-c3ccncc3)cc12 [GW630823] ?
Ans: 5

Q: Record lookup: for CDK2, what %Inh belongs to Fc1cccc(COc2ccc(Nc3ncnc4sc(-c5ccc[nH]5)cc34)cc2Cl)c1 [GW707818] ?
Ans: 0

Q: Record lookup: for CDK2, what %Inh belongs to CCc1nc(-c2cccc(N(C)S(=O)(=O)c3ccccc3)c2)c(-c2ccnc(Nc3ccc(N4CCN(C(C)=O)CC4)nc3)n2)s1 [GSK1645895] ?
Ans: 0

Q: Record lookup: for CDK2, what %Inh belongs to Nc1nc(-c2ccc3c(N)n[nH]c3c2)cc(N2CCCCC2)n1 [GSK2228768] ?
Ans: 6

Q: Record lookup: for CDK2, what %Inh belongs to COc1cc2ncnc(Nc3ccc(OCc4ccccc4Br)c(Cl)c3)c2cc1OC.Cl [GI261590] ?
Ans: 0

Q: Record lookup: for CDK2, what %Inh belongs to CSc1nn2c(=O)cc(N3CCOCC3)nc2n1Cc1cccc(Cl)c1Cl [GSK2347225] ?
Ans: 0

Q: Record lookup: for CDK2, what %Inh belongs to Cl.c1ccc(Cn2ccc3cc(Nc4ncnc5ccccc45)ccc32)cc1 [GW275568] ?
Ans: 1

Q: Record lookup: for CDK2, what %Inh belongs to O=C(c1ccc(-c2cc(-c3c[nH]nc3-c3ccccn3)ccn2)cc1)N1CCCC1 [GW792479] ?
Ans: 19

Values from paper PMC5540273
